pEC50: recorded values
molecular target: NP of A/California/07/2009(H1N1/H1S) (influenza A virus, NYMC X-181 derived …); test: sandwich ELISA, capture IgG; NP of lysed virus titrated; HRP-NP16 detection
Sequence (P03466 whole entry): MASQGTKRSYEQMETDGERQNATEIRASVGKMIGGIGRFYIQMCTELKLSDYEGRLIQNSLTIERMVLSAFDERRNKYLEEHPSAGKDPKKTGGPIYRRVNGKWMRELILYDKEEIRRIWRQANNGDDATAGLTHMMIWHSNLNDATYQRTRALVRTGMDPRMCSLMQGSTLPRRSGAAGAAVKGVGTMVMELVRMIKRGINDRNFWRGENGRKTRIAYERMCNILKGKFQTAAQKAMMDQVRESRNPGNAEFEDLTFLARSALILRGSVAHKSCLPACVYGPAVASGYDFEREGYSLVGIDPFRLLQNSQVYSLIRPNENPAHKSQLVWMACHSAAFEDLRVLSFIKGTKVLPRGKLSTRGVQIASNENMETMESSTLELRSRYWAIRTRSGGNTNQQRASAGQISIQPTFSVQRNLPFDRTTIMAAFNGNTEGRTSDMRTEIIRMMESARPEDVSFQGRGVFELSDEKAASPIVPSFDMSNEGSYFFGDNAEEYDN
On this scale, pEC50 is minus log10 of a concentration expressed in M (mol/L).

{"binder": "NP10 (antibody, V domains shown) VH: EVQLVESGGGLVQPGGSLRLSCAASGFTIDNGSIHWVRQAPGKGLEWVAWIWPFGGSTSYADSVKGRFTISADTSKNTAYLQMNSLRAEDTAVYYCARSWSSGYDYWGQGTLVTVSS VL: DIQMTQSPSSLSASVGDRVTITCRASQDVSWSVAWYQQKPGKAPKLLISGSTWLYSGVPSRFSGSGSGTDFTLTISSLQPEDFATYYCQQYSNSPITFGQGTKVEIKR", "pEC50": 8.48}

Query: If you can, please state the reported pEC50 value of NP21 (antibody, V domains shown) VH: EVQLVESGGGLVQPGGSLRLSCAASGFTINGYGIHWVRQAPGKGLEWVAGIWPYGGSTFYADSVKGRFTISADTSKNTAYLQMNSLRAEDTAVYYCARFYNNHGGIMDYWGQGTLVTVSS VL: DIQMTQSPSSLSASVGDRVTITCRASQDVYFYVAWYQQKPGKAPKLLIYGSRWLYSGVPSRFSGSGSGTDFTLTISSLQPEDFATYYCQQYSNFPVTFGQGTKVEIKR .
Result: 8.57
